# protocol_notes: Aqueous solubility
# Assay type: physicochemical
# condition_context: in water
recorded_endpoint: solubility (µg/mL)
Express it in µg/mL; write the number only.

Answer with the recorded solubility for the compound listed here: COc1cc2ncnc(NCCc3cnc(NC(=O)Nc4cccc(Cl)c4)s3)c2cc1OC [Compound 4]
0.452

Find the measured solubility of CN(C)CCCOc1ccc2c(NCCc3cnc(NC(=O)Nc4cccc(Cl)c4)s3)ncnc2c1 [BPR1K871] and report it.
0.124

Dear colleague, please send me the reported solubility for COCCOc1ccc2c(NCCc3cnc(NC(=O)Nc4cccc(Cl)c4)s3)ncnc2c1 [Compound 8] when you can.
0.107

* * *

# subject_of_test: AURKA (Homo sapiens)
# Construct: recombinant GST-AURKA (residues Ser123-Ser401) containing the kinase domain; GST (N); made in house; host or cells: Sf9 insect cells
# Sequence (O14965 123-401): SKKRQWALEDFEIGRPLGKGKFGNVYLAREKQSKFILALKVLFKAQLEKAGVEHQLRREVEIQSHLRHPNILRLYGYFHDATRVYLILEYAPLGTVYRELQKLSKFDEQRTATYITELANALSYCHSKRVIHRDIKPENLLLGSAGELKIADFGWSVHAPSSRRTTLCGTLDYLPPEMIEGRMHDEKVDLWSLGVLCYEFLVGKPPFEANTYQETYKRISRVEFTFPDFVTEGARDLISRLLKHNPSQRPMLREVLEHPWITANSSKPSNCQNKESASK
# protocol_notes: AURKA inhibition assay (Kinase-Glo)
# Format: biochemical
# condition_context: mean of at least two independent experiments, within ±15%
Field: pIC50. Provide a value for each of the molecules that follow.
Keep in mind that pIC50 stands for -log10 of concentration in molar terms.

Give a short answer stating reported pIC50 for COCCOc1cc2ncnc(NCCc3cnc(NC(=O)Nc4cccc(Cl)c4)s3)c2cc1OCCOC .
8.22

Assign pIC50 to the following record: COCCOc1ccc2c(NCCc3cnc(NC(=O)Nc4cccc(Cl)c4)s3)ncnc2c1
7.96

# return recorded pIC50 for entry O=C(Nc1cccc(Cl)c1)Nc1ncc(CCNc2ncnc3ccccc23)s1
7.82

Identify the reported pIC50 for the following entry. COc1cccc(NC(=O)Nc2ncc(CCNc3ncnc4cc(OCCCN(C)C)ccc34)s2)c1
7.72

Please give measured pIC50 of the following entry: CN(C)CCCOc1ccc2c(NCCc3cnc(NC(=O)Nc4cccc(Cl)c4)s3)ncnc2c1
7.66
